Each record here notes measured pIC50.
target: HIF-2α HIS TAG-PASB Domain (Homo sapiens); assay: biochemical; assay type: binding; conditions: unnumbered compounds listed by structure and name; read-out: IC50 value in SPA
Sequence (Q99814 whole entry, looked up, the tested form may be a part): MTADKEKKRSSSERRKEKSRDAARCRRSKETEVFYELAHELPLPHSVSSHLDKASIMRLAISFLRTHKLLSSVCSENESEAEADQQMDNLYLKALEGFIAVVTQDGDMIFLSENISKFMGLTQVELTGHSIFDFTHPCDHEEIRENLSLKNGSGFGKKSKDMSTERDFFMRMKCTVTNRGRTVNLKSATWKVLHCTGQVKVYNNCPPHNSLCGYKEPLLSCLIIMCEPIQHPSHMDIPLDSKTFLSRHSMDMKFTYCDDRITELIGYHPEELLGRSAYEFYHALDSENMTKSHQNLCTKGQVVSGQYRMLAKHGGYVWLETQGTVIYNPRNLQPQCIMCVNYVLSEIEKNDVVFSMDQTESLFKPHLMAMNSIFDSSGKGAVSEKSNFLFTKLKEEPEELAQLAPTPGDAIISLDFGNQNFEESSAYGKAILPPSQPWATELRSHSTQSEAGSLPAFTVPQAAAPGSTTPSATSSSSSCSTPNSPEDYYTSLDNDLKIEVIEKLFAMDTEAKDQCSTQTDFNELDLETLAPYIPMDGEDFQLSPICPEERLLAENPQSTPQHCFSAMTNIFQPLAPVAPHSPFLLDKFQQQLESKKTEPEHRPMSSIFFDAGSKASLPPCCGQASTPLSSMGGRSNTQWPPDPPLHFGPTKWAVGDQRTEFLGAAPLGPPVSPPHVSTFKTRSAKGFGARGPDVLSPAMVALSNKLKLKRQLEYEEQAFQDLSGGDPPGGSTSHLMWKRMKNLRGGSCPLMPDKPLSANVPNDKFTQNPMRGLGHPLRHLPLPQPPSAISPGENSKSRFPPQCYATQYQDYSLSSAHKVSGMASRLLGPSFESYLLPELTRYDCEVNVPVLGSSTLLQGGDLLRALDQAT
pIC50: −log10 of the molar value.
OBSERVATION TYPE: pIC50

O=C1c2c(ccc(Oc3ccc(F)c(F)c3)c2C(F)F)S(=O)(=O)C1(F)F	< 4.00
N#Cc1c(Oc2cncc(F)c2)ccc2c1[C@@H](O)CS2(=O)=O	4.00 to 4.60
N#Cc1cc(F)cc(Oc2ccc3c(c2CF)C(O)CS3(=O)=O)c1 (stereo not drawn)	4.00 to 4.60

###

System: HIF-2α HIS TAG-PASB Domain
Assay: biochemical
Assay type: binding
Conditions: displacement of Compound 120 probe; mean; read-out: Mean SPA IC50
Text: The term “scintillation proximity assay” (SPA) refers to a homogenous assay in which light is emitted when a radiolabeled ligand is brought into close proximity to a radiosensitive bead. […] Radiolabeled ligand (e.g., labeled with tritium) that binds to the protein is now in close proximity to the bead, and when the raidolabel (e.g., tritium) decays, the high energy particle hits the bead resulting in the emission of light that is detected by a detector, such as photomultiplier tube or CCD camera. […]
pIC50: −log10 of the molar value.
Each record here notes measured pIC50.
OBSERVATION TYPE: pIC50

Cc1c(Oc2cc(F)cc(Cl)c2)ccc2c1C(O)C(F)(F)S2(=O)=O (stereo not drawn)	7.82
O=S1(=O)c2ccc(Oc3cc(F)cc(Cl)c3)cc2C(O)C1(F)F (stereo not drawn)	5.73
N#Cc1c(Oc2cc(F)cc(Cl)c2)ccc2c1C(O)C(F)(F)S2(=O)=O (stereo not drawn)	7.35
O=S1(=O)c2ccc(Oc3cncc(Cl)c3)c(C(F)F)c2C(O)C1(F)F (stereo not drawn)	6.64
N#Cc1cc(F)cc(Oc2ccc3c(c2C(F)F)C(=O)C(F)(F)S3(=O)=O)c1	5.62
N#Cc1cncc(Oc2ccc3c(c2C(F)F)C(O)C(F)(F)S3(=O)=O)c1 (stereo not drawn)	6.92
CC1(C)C(O)c2c(ccc(Oc3cc(F)cc(Cl)c3)c2Br)S1(=O)=O (stereo not drawn)	4.66
